Target: T1, GST-PDZ fusion protein, PDZ domain of SHANK1 (GID 7025450), D3YZU1
T1 chain: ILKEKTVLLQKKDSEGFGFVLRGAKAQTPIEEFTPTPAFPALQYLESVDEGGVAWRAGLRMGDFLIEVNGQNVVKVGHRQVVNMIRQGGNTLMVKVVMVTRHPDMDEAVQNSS
Experiment: ELISA
Conditions: chains peptide; modification not given

[
  {
    "binder": "RRRSGLDDINPTVLLKERSTEL [Peptide 1957]",
    "EC50, µM": 66.3
  }
]
